Where do the numbers come from? From PubChem BioAssay (NCI).

System: NCI-H23 lung
Assay: NCI-60 one-dose screen, 48 h (100 = growth as untreated, 0 = no growth, -100 = all killed)
Details: 10 µM unless noted
Compounds without any hit were thinned out: in the full panel of roughly 83,000, 20% have a hit. Calls of active or inactive are those of the source. Rule for the calls: active = growth percent below 10; inactive = the rest.
experimental.endpoint: growth

What the record says about `COC(=O)[C@]12CC[C@@H](C)[C@H](C)[C@@H]1C1=CC[C@@H]3[C@@]4(C)C=C(O)C(=O)[C@@]5(C)COC(=C54)C[C@@]3(C)[C@]1(C)CC2` : growth is -73.1% (active)

###

System: SK-MEL-2 melanoma
Assay: NCI-60 one-dose screen, 48 h
Conditions: 10 µM unless noted
Method: Growth inhibition of the SK-MEL-2 human tumor cell line is measured as a screen for anti-cancer activity. Cells are grown in 96 well plates and exposed to the test compound for 48 hours. Compounds are tested at a single concentration, which is 10^-5 M for most compounds. The reported endpoint is percent growth (GI% or GIPRCNT), where numbers from 0 - 100% represent growth inhibition, and numbers from -100% - 0 represent cell death. For example, a value of 40 represents 60% growth inhibition. […]
About 83,000 compounds went through this panel and 20% of them were active in at least one assay; those are over-represented in the sample as a whole. Activity calls are given as the source filed them. How the source made its calls: active means growth percent below 10; inactive means the rest.
Can you answer with just one of these options? label 1 for active, label 0 for inactive

Call for entry ClC1C2CC(c3ccccc32)C1Cl (centres undefined) :
label 0

Call for entry `COc1cc(/C=C/C(=O)N2CCN(C(=O)/C=C/c3ccccc3)CC2)cc(OC)c1OC` :
label 0

Call for entry `CCCCCCCCCCCCCCCCCc1nccn1CCO` :
label 0

Call for entry `COc1ccc2[nH]cc(/C=C3/C(=O)Nc4ccc(F)cc43)c2c1` :
label 0

Call for entry `Cc1c(C(N)=O)sc2ncn(Cc3ccccc3)c(=O)c12` :
label 0

Call for entry `S=c1[nH]nc2sc3ccccc3n12` :
label 0

Call for entry `COc1cc(OC)c2sc(-c3ccc(-n4cncc4-c4ccc(N)cc4)cc3)nc2c1` :
label 0

Call for entry `COc1ccc(OC)c2c1[nH]c(=O)c1c3ccccc3cn21` :
label 1

Call for entry `COc1ccc(CCN2CCCN3C2=Nc2ccccc2S3(=O)=O)cc1` :
label 0

Call for entry `COc1ccc(-n2nc3c(c2-c2ccc(OC)c(OC)c2)-c2oncc2CC3)cc1` :
label 0

Call for entry `COc1ccc(-c2oc3cc(O)c(OC)c(O)c3c(=O)c2OC)cc1O` :
label 0

Call for entry `O=C1/C(=C/c2ccc([N+](=O)[O-])o2)Oc2ccc(Cl)cc21` :
label 1

###

Tested on: LOX IMVI melanoma
Assay: NCI-60 one-dose screen, 48 h
Conditions: 10 µM unless noted
Protocol: Growth inhibition of the LOX IMVI human tumor cell line is measured as a screen for anti-cancer activity. Cells are grown in 96 well plates and exposed to the test compound for 48 hours. Compounds are tested at a single concentration, which is 10^-5 M for most compounds. The reported endpoint is percent growth (GI% or GIPRCNT), where numbers from 0 - 100% represent growth inhibition, and numbers from -100% - 0 represent cell death. For example, a value of 40 represents 60% growth inhibition. […]
About 83,000 compounds went through this panel and 20% of them were active in at least one assay; those are over-represented in the sample as a whole. Calls of active or inactive are those of the source. How the source made its calls: active means growth percent below 10; inactive means the rest.
Can you answer with just one of these options? label 1 for active, label 0 for inactive

> print(dat)
                                    compound        test.system    label
 1  O=C(CCc1nnc(SCc2ccccc2)s1)c1nc2ccccc2[nH]1  LOX IMVI melanoma  label 0
 2  O=C(NCCc1ccccc1)C1CCC(=O)N1Cc1ccc(Br)cc1 (stereo unspecified)  LOX IMVI melanoma  label 0
 3  COc1ccc(-c2oc3cc(O)c(OC)c(O)c3c(=O)c2OC)cc1O  LOX IMVI melanoma  label 0
 4  CCN(CC)CCCCNc1c2ccccc2[n+](C)c2c1[nH]c1ccccc12  LOX IMVI melanoma  label 1
 5         O=C(CN1CCCCC1)Sc1nnc2sc3ccccc3n12  LOX IMVI melanoma  label 0
 6  c1cncc(CNc2ccccc2-c2nnc(Nc3ccc4c(c3)OCO4)o2)c1  LOX IMVI melanoma  label 1
 7  CC(C)C/C(=N\NC(=O)c1ccncc1)c1cc(Cl)ccc1O  LOX IMVI melanoma  label 1
 8  Cc1nn(-c2ccc(Cl)cc2)c2nc3c(nc12)c(=O)oc1ccccc13  LOX IMVI melanoma  label 0
 9            CC(=O)NCCSC(=O)C(=O)SCCNC(C)=O  LOX IMVI melanoma  label 0
10  CCOc1ccccc1C(=O)OCC(=O)Nc1cccc(S(=O)(=O)N(C)C)c1  LOX IMVI melanoma  label 0

Call for entry `S=C(c1ccccc1)N1CCN(c2cccc(Cl)c2)CC1` :
label 0
